# procedure_summary: qHTS Assay for Identifying Gametocytocidal Compounds (AID 743244);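 further: actives lower the fluorescent signal which means gametocytes are killed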
# condition_set: P. falciparum 3D7 stage III-V gametocytes, alamarBlue, 72 h; hits give low values
Records with an inconclusive call do not appear.
Decide using max response alone. Strictly below 10%: true. Equal to or above 10%: false.

{"columns": ["compound", "classification"],
 "data": [
  ["O=C1c2ccccc2C(=O)C1c1ccccc1", "true"],
  ["CC1(C)O[C@@H]2[C@@H](CO[C@@]3(COS(N)(=O)=O)OC(C)(C)O[C@@H]23)O1", "true"],
  ["OC(CCN1CCCCC1)(c1ccccc1)c1ccccc1", "false"],
  ["Cc1c(N(C)CS(=O)(=O)O)c(=O)n(-c2ccccc2)n1C", "false"],
  ["CCCCCCCCCCCCCCCCOP(=O)([O-])OCC[N+](C)(C)C", "true"],
  ["O=C1OC(c2ccc(O)cc2)(c2ccc(O)cc2)c2ccccc21", "true"],
  ["NC(CO)(CO)CO", "true"],
  ["CCC(=O)c1c(O)cc(O)cc1O", "false"],
  ["COC(=O)[C@@H]1CC2=CC(=O)CC[C@]2(C)[C@@]23O[C@@H]2C[C@@]2(C)[C@@H](CC[C@@]24CCC(=O)O4)[C@H]13", "true"],
  ["NC[C@H]1O[C@H](O[C@H]2[C@H](O[C@@H]3O[C@H](CO)[C@@H](O)[C@H]3O)C(O)[C@H](N)C[C@@H]2N)[C@H](N)[C@@H](O)[C@@H]1O (stereo partly specified)", "true"],
  ["CCOC(=O)c1cccc(N)c1", "true"],
  ["CCCCS(=O)(=O)N[C@@H](Cc1ccc(OCCCCC2CCNCC2)cc1)C(=O)O", "true"],
  ["O=C(OCC(O)CO)c1ccccc1Nc1ccnc2cc(Cl)ccc12 (stereo unspecified)", "true"],
  ["OCc1ccccc1O", "false"],
  ["CC(C)(CO)[C@@H](O)C(=O)NCCCO", "false"]
]}

----------
# procedure_summary: qHTS of pediatric cancer cell lines to identify multiple opportunities for drug repurposing: Primary screen for SK-N-MC cells (AID 1347093)
# condition_set: SK-N-MC viability, CellTiter-Glo luminescence, 48 h; series mostly up to 46 µM
Records with an inconclusive call do not appear. Active and inactive are the calls of the source. The call rests on the fitted dose curve; in most records, active means well fitted cell-killing curve with a large enough effect; inconclusive means small, poorly fitted or top-dose-only effect; inactive means no such curve, though single readings can be large or run the other way.
Labels: active, inactive

{"columns": ["compound", "classification"],
 "data": [
  ["C[C@@H]1C[C@H]2[C@@H]3CCC4=CC(=O)C=C[C@]4(C)[C@@]3(F)[C@@H](O)C[C@]2(C)[C@H]1C(=O)CO", "inactive"],
  ["CN1C(CCl)Nc2cc(Cl)c(S(N)(=O)=O)cc2S1(=O)=O (stereo unspecified)", "inactive"],
  ["CN1[C@@H]2CC[C@H]1CC(OC(=O)c1c[nH]c3ccccc13)C2 (stereo partly specified)", "inactive"],
  ["CC/C(=C(/CC)c1ccc(O)cc1)c1ccc(O)cc1", "active"],
  ["COc1cc2c(cc1OC)C(=O)C(CC1CCN(Cc3ccccc3)CC1)C2 (stereo unspecified)", "inactive"],
  ["CN=C(NC#N)NCCSCc1csc(N=C(N)N)n1", "inactive"],
  ["C[C@H]1[C@H](NC(=O)/C(=N/OC(C)(C)C(=O)O)c2csc(N)n2)C(=O)N1S(=O)(=O)O (stereo in doubt)", "inactive"],
  ["Cc1c(F)c(N2CCNC(C)C2)cc2c1c(=O)c(C(=O)O)cn2C1CC1 (stereo unspecified)", "inactive"],
  ["Cc1cccc(C)c1NC(=O)CN1CCN(CCCC(c2ccc(F)cc2)c2ccc(F)cc2)CC1", "inactive"],
  ["OCc1ccccc1O", "inactive"],
  ["Oc1cc(O)c2c(c1)O[C@H](c1ccc(O)c(O)c1)[C@H](O)C2", "inactive"]
]}
